Data provenance: the NIST ThermoML archive (doi:10.1016/j.jct.2016.07.005)

Let's look at some compounds and their measured refractive index.
test: refractive index (Na D-line) (dimensionless); xn = mol fraction of the nth substance listed; conditions: 298.15 K; 100 kPa; Liquid; Standard Abbe refractometry; x1 = 0.9
± gives the expanded uncertainty stated by the source.

Sample records with refractive index:
- compound: "CN1CCC[C@H]1c1cccnc1 [(-)-3-(N-methylpyrrolidino)pyridine] + CCCCO"
  refractive index: "1.51685 ± 0.0004"
- compound: "CN1CCC[C@H]1c1cccnc1 [(-)-3-(N-methylpyrrolidino)pyridine] + CCC(C)O"
  refractive index: "1.51632 ± 0.0004"
- compound: "CN1CCC[C@H]1c1cccnc1 [(-)-3-(N-methylpyrrolidino)pyridine] + OCCCO"
  refractive index: "1.52064 ± 0.00041"

QUERY: Output measured refractive index for this item: CN1CCC[C@H]1c1cccnc1 [(-)-3-(N-methylpyrrolidino)pyridine] + CC(O)CO
RESULT: 1.51971 ± 0.0004

====

// reported viscosity for each item listed
experiment: xn = mol fraction of the nth substance listed; settings: 308.15 K; 100 kPa; Liquid; Concentric cylinders viscometry; x1 = 0.1
Quick note: give the figure in mPa·s, leave out the unit.

Answered examples (3):
- compound: "CN1CCC[C@H]1c1cccnc1 [(-)-3-(N-methylpyrrolidino)pyridine] + CCC(C)O"
  uom: "mPa·s"
  viscosity: 2.162
- compound: "CN1CCC[C@H]1c1cccnc1 [(-)-3-(N-methylpyrrolidino)pyridine] + CC(O)CO"
  uom: "mPa·s"
  viscosity: 24.46
- compound: "CN1CCC[C@H]1c1cccnc1 [(-)-3-(N-methylpyrrolidino)pyridine] + CCCCO"
  uom: "mPa·s"
  viscosity: 2.105

Okay, now this compound:
QUERY: Look up and report measured viscosity for this entry: CN1CCC[C@H]1c1cccnc1 [(-)-3-(N-methylpyrrolidino)pyridine] + OCCCO
RESULT: 29.84

====

details: 293.15 K; 100 kPa; Liquid; Vibrating tube method
Numbers after ± are expanded uncertainties.
# Lookup of reported mass density keyed by entry
Param answer (str): number followed by unit.

- compound: "OCCCO"
  result: "1053.03 ± 1.3 kg/m3"
- compound: "CC(O)CO (stereo not given)"
  result: "1036.3 ± 1 kg/m3"
- compound: "CCCCO"
  result: "809.819 ± 1 kg/m3"
- compound: "CN1CCC[C@H]1c1cccnc1 [(-)-3-(N-methylpyrrolidino)pyridine]"
  result: "1010.23 ± 1 kg/m3"

QUERY: Provide measured mass density value, entry: CCC(C)O (stereo not given)
RESULT: 807.19 ± 1 kg/m3

====

experiment: refractive index (Na D-line) (dimensionless); xn = mol fraction of the nth substance listed; settings: 303.15 K; 100 kPa; Liquid; Standard Abbe refractometry; x1 = 0.5
Catalogue of refractive index readings, one per entry.
Write no unit; give the number alone.

- compound: "CN1CCC[C@H]1c1cccnc1 [(-)-3-(N-methylpyrrolidino)pyridine] + CCC(C)O"
  refractive index: 1.47644
- compound: "CN1CCC[C@H]1c1cccnc1 [(-)-3-(N-methylpyrrolidino)pyridine] + CCCCO"
  refractive index: 1.47856

QUERY: Identify refractive index associated with the compound CN1CCC[C@H]1c1cccnc1 [(-)-3-(N-methylpyrrolidino)pyridine] + OCCCO
RESULT: 1.49939

QUERY: Return the recorded refractive index value; entry: CN1CCC[C@H]1c1cccnc1 [(-)-3-(N-methylpyrrolidino)pyridine] + CC(O)CO
RESULT: 1.49496
